FYI, the data here is from paper PMC6556873.

# ASSAY_INFO: in vitro
# Design: species or system CCD841, HEK293
# ASSAY_SETUP: human, hb2 cells, read-out: HB-2 Cells Viability (%)
READOUT: viability at 48 h, 10 µM (%)
Express it in %; write the number only.

INPUT: Given C=CC(=O)NC(=O)Nc1ccccc1 [PCM-0102883] , state its recorded viability at 48 h, 10 µM.
OUTPUT: 5.4

INPUT: Same lookup for O=C(CCl)N1CCN(S(=O)(=O)c2ccccc2Cl)CC1 [PCM-0102837] , please.
OUTPUT: 4.7

INPUT: What do you get for C=CC(=O)NC1(C(=O)N2CCN(C)CC2)CCCC1 [PCM-0103054] ?
OUTPUT: 99.9

INPUT: Another compound to look at: C=CC(=O)N1CCCCC1c1ncon1 (centres unmarked) [PCM-0102517]
OUTPUT: 101

INPUT: Here is the next compound: O=C(CCl)Nc1ccccc1F [PCM-0102158]
OUTPUT: 50

INPUT: Also check C=CC(=O)NCC1COc2ccccc2O1 (centres unmarked) [PCM-0102713]
OUTPUT: 99

INPUT: And CC1CCN(C(=O)CCl)c2ccccc2S1 (centres unmarked) [PCM-0102216] ?
OUTPUT: 77.3

INPUT: Please do the same for Cc1csc(CC(=O)NNC(=O)CCl)n1.Cl [PCM-0102095] as well.
OUTPUT: 93.3

* * *

As shown below, each of these compounds has a reported OTUB2 value.
# SYSTEM_TESTED: OTUB2 (OTUB2A) (Homo sapiens)
# Construct: full length residues 1-234, E. coli BL21(DE3)-R3, His tag removed by TEV, construct 27312 Da
# Sequence (Q96DC9 1-234): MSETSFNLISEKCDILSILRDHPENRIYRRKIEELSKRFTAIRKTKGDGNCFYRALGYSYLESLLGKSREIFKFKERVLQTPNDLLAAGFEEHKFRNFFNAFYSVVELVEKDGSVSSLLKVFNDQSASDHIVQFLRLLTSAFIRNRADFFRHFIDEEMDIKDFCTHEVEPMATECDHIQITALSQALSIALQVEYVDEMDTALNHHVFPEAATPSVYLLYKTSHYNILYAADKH
# Design: Intact protein LC/MS covalent labelling, fragments in pools of five, 200 uM each, 4 °C
# ASSAY_SETUP: 24 h, 4 °C, pool of five; 200 µM; covalent
Just the number, please, no unit after it.

Example cases with answers are listed next.
CCN1CCC(NC(=O)CCl)CC1.Cl = 0
O=C(CCl)NC1c2ccccc2-c2ccccc21 = 0.16
O=C(Nc1ccccc1O)C1CCN(C(=O)CCl)CC1 = 0.14
O=C(CCl)N1N=C(c2ccco2)CC1c1ccsc1 (centres unmarked) = 0

Alright, here's another compound for you.
INPUT: Item C=CC(=O)N1CCCC(C(C)NC(=O)NC(C)(C)C)C1 (centres unmarked) has what recorded OTUB2?
OUTPUT: 0

* * *

# ASSAY_INFO: in vitro
# Parameters: species or system HB2, CCD841
# ASSAY_SETUP: human, hek293 cells
Label scheme for viability at 48 h, 10 µM: range A = under 10%, range B = from 10% up to 90%, range C = 90% and over

Past entries and their recorded results:
CC(NC(=O)CCl)C1CC2CCC1C2 (stereo not drawn) = range B
Cl.O=C(CCl)N1CCN(c2ccccn2)CC1 = range B
C=CC(=O)Nc1ccc2c(c1)OCO2 = range B
O=C(CCl)N1CCCC1=O = range C
C=CC(=O)N1CCn2c(cc3cc(Cl)ccc32)C1 = range B

INPUT: Band of CC1CCCCC1N(C)C(=O)CCl (stereo not drawn) ?
OUTPUT: range B

INPUT: Next compound up: C=CC(=O)N1CCCC(C(C)NC(=O)NC(C)(C)C)C1 (stereo not drawn)
OUTPUT: range C

INPUT: Another compound to check: COC(=O)C1CCN(C(=O)CCl)CC1
OUTPUT: range C

INPUT: What do you have for O=C(CCl)N1CCN(S(=O)(=O)c2ccc(Cl)cc2)CC1 ?
OUTPUT: range A

INPUT: Try this compound too: Cc1c(C#N)c(NC(=O)CCl)n(-c2ccccc2)c1C
OUTPUT: range A

INPUT: Another compound to look at: COc1ccc(Cl)cc1NC(=O)CCl
OUTPUT: range A

* * *

Reported viability at 48 h, 10 µM by item:
# ASSAY_INFO: in vitro
# Design: species or system HB2, CCD841
# ASSAY_SETUP: human, hek293 cells
// unit must come after the numeric part

Here is how some compounds turned out for viability at 48 h, 10 µM.
C=CC(=O)Nc1ccc(C)c(F)c1 = 78.8%
C=CC(=O)N1CCN(c2cc(C)nc(C)n2)CC1 = 78.9%
Cc1cc(NC(=O)CCl)n(C(C)(C)C)n1 = 58.6%
Cc1ccc(NC(=O)NC(=O)CCl)cc1 = 80.6%
N#CC1(NC(=O)CCl)CCCCC1 = 66%

INPUT: Requested field: viability at 48 h, 10 µM. Item: CN(Cc1cc(Cl)cc(Cl)c1)C(=O)CCl
OUTPUT: 22%

INPUT: Follow-up item: Cc1ccc(NC(=O)CCl)c(Br)c1
OUTPUT: 45.5%

* * *

Consider the following molecules and their measured viability at 48 h, 10 µM readings.
# ASSAY_INFO: in vitro
# Parameters: species or system CCD841, HEK293
# ASSAY_SETUP: human, hb2 cells, read-out: HB-2 Cells Viability (%)
// return numeric value only (unit: %, not printed)

Study these solved cases before continuing.
O=C(CCl)Nc1ccc2c(c1)OCCO2 [PCM-0102324] = 35.2
N#CC(c1cccs1)N1CCN(C(=O)CCl)CC1 (centres unmarked) [PCM-0102223] = 74
O=C(CCl)NCC1CCOC1 (centres unmarked) [PCM-0102596] = 93.6
O=C(CCl)N1CCC(c2nc3ccccc3s2)CC1 [PCM-0103068] = 17.4

Turning now to a further record.
INPUT: Value lookup for viability at 48 h, 10 µM; key = NC(=O)c1c(NC(=O)CCl)sc2c1CCCC2 [PCM-0102620]
OUTPUT: 42.3

* * *

# ASSAY_INFO: in vitro
# Design: species or system HB2, CCD841
# ASSAY_SETUP: human, hek293 cells
READOUT: viability at 48 h, 10 µM

Guide cases for viability at 48 h, 10 µM, answers given:
O=C(CCl)NC(=O)Nc1ccc(Br)cc1 [PCM-0102308] = 71.6%
Cc1cc(C)cc(NC(=O)CCl)c1 [PCM-0102394] = 22.3%
C=CC(=O)N1CCN(C(=O)OCC(C)C)CC1 [PCM-0102449] = 76.6%
O=C(CCl)Nc1nnc(C2CC2)o1 [PCM-0102187] = 97.2%
COC(=O)c1cc(Cl)cc(Cl)c1NC(=O)CCl [PCM-0102912] = 106%

INPUT: Consider the compound shown here: C=CC(=O)N1CCn2nc(C)nc2C1 [PCM-0102605] What is its recorded viability at 48 h, 10 µM?
OUTPUT: 88.4%

INPUT: Also COC(=O)c1ccccc1N(C)C(=O)CCl [PCM-0102589] , if possible.
OUTPUT: 58.9%

* * *

# SYSTEM_TESTED: OTUB2 (OTUB2A) (Homo sapiens, UniProt Q96DC9)
# Construct: full length residues 1-234, E. coli BL21(DE3)-R3, His tag removed by TEV, construct 27312 Da
# Parameters: Intact protein LC/MS covalent labelling, fragments in pools of five, 200 uM each, 4 °C
# ASSAY_SETUP: 24 h, 4 °C, pool of five; 200 µM; covalent
READOUT: OTUB2
Number only, please.

Consider the reported OTUB2 for these compounds:
O=C(CCl)N=c1sccn1Cc1ccccc1Cl = 0
CC1CCCCC1NC(=O)NC(=O)CCl (stereo not shown) = 0.24
CC(c1ccccc1)N1CCN(C(=O)CCl)CC1.Cl (stereo not shown) = 0.12

INPUT: Checklist item: OTUB2 tested on OTUB2 (OTUB2A) (Homo sapiens, UniProt Q96DC9), entry C=CC(=O)N1CCCn2c(cc3ccccc32)C1 , value?
OUTPUT: 0.18

INPUT: What do you have for C=CC(=O)N1CCc2c([nH]c3ccccc23)C1 ?
OUTPUT: 0

INPUT: Now consider N#Cc1ccccc1S(=O)(=O)N1CCN(C(=O)CCl)CC1 .
OUTPUT: 0

INPUT: COC(=O)c1cccc(NC(=O)CCl)n1 ?
OUTPUT: 0

* * *

# ASSAY_INFO: in vitro
# Set-up: species or system HB2, CCD841
# ASSAY_SETUP: human, hek293 cells
READOUT: viability at 48 h, 10 µM (%)
Please respond with the number in % and leave the unit unwritten.

Examples from the recorded data:
N#Cc1ccc(C(=O)NNC(=O)CCl)cc1 = 103
Cc1cccc([N+](=O)[O-])c1NC(=O)CCl = 77.5
COC(=O)c1c(NC(=O)CCl)sc2c1CCC2 = 18.6

Note: attention shifts to another entry.
INPUT: What value of viability at 48 h, 10 µM has been recorded for this entry: C=CC(=O)N(C1CC1)C1CC(=O)NC1=O (stereo not drawn)
OUTPUT: 94.9
